Measured Activity of individual entries
- assayedSystem: NAD-dependent protein deacetylase sirtuin-1 (Homo sapiens) (UniProt Q96EB6)
- Sequence (whole entry): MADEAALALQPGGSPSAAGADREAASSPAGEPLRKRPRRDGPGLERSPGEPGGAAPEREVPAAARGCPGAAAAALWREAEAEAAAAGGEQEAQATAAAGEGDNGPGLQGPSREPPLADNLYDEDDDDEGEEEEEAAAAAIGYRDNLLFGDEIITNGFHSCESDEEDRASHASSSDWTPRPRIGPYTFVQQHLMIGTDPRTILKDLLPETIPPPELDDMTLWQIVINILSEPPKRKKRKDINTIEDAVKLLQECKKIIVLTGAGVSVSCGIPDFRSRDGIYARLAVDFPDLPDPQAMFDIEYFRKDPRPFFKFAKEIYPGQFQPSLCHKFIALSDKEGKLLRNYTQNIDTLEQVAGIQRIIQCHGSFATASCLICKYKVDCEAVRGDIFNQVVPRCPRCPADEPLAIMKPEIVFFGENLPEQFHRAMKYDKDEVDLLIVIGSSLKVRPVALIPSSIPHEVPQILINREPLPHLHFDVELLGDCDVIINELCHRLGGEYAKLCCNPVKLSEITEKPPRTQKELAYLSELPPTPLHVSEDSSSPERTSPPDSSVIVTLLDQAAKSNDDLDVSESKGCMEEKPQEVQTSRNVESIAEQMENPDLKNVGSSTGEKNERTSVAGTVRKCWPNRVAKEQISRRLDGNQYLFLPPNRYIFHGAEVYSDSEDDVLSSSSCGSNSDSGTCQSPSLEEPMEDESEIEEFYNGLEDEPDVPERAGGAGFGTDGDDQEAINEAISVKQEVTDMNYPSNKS
- assayExplanation: Inhibition of human SIRT1 assessed as enzyme activity using Fluor-de-Lys as substrate at 1 mM by fluorometry
- Set-up: scale not given: the % may be the effect or the level left
Field format: number, assumed %, no unit text.

>>> observedmeasurement("O=C1NCCc2ccncc21")
125
>>> observedmeasurement("Cc1ccc(C(=O)Nc2ccc(S(=O)(=O)O)c3cc(S(=O)(=O)O)cc(S(=O)(=O)O)c23)cc1NC(=O)c1cccc(NC(=O)Nc2cccc(C(=O)Nc3cc(C(=O)Nc4ccc(S(=O)(=O)O)c5cc(S(=O)(=O)O)cc(S(=O)(=O)O)c45)ccc3C)c2)c1")
18
>>> observedmeasurement("O=C1NCc2ccncc21")
117

Now for the compound whose Activity we want.
[Q] Any idea what Activity was measured for Cc1ncccc1C(N)=O ?
[A] 101
